For each of the variants below, state its reverse-splicing fitness.
B1: Azoarcus group I ribozyme (parent)
chain: GUGCCUUGCGCCGGGAAACCACGCAAGGGAUGGUGUCAAAUUCGGCGAAACCUAAGCGCCCGCCCGGGCGUAUGGCAACGCCGAGCCAAGCUUCGGCGCCUGCGCCGAUGAAGGUGUAGAGACUAGACGGCACCCACCUAAGGCAAACGCUAUGGUGAAGGCAUAGUCCAGGGAGUGGCGAAAGUCACACAAACCGG

variants of: B1; test: reverse-splicing fitness (ratio to wild type); higher = more active; in vitro selection; Mg2+ level not given
Numbers only.

Some solved cases for reference:
State its reverse-splicing fitness for this variant: A111C A120G A145C C150G C169G U176C
0.00609

Complete the entry with reverse-splicing fitness for C82U A120G C150A U176G
0.00583

Annotate the variant C82A A111G A120G A145G C150G C169G U176G with its measured reverse-splicing fitness.
0.00614

// moving on: another record for reverse-splicing fitness
Give the value of reverse-splicing fitness reported for the following: C82A A111U A120C A145C C150U C169U U176G
0.00618
